Tested target: Recombinant human TYK2 catalytic domain (Homo sapiens (Human), UniProt P29597)
Sequence (P29597 871-1187): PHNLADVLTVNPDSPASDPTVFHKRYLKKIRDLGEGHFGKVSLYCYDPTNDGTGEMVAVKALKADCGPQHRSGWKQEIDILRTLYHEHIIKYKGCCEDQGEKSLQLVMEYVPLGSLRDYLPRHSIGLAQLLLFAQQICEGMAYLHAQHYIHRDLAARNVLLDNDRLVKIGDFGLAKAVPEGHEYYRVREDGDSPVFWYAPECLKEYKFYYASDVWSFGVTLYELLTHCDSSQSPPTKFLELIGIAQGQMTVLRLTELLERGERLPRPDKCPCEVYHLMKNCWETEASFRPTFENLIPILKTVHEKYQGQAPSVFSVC
Assay method text: TYK2 inhibition assay
Assay type: biochemical
Experimental setup: semi-quantitative score
pIC50: −log10 of the molar value.
Let's look at some compounds and their measured pIC50.

Worked examples follow.
Cc1cc(COc2ccc(-c3cccc4nc(NC(=O)C5CC5)nn34)cc2)n(C)n1 < 6.00
Cc1cc(COc2ccc(-c3cccc4nc(NC(=O)C5CC5)nn34)cc2)no1 6.00 to 6.30
CN1CCN(c2ccc(-c3cccc4nc(NC(=O)C5CC5)nn34)cc2)CC1 < 6.00
NC(=O)c1ccccc1NCc1ccc(-c2cccc3nc(NC(=O)C4CC4)nn23)cc1 > 7.00
O=C(Nc1nc2cccc(-c3ccc(NS(=O)(=O)c4ccc(F)cc4)cc3)n2n1)C1CC1 6.30 to 7.00

Using the record for "O=C(Nc1ccccc1)c1ccc(-c2cccc3nc(NC(=O)C4CC4)nn23)cc1" , state its measured pIC50.
< 6.00

Using the record for "O=C(NCc1ccccc1)c1ccc(-c2cccc3nc(NC(=O)C4CC4)nn23)cc1" , state its measured pIC50.
< 6.00
